Target: Alpha-1B adrenergic receptor (Homo sapiens, UniProt P35368)
Sequence (P35368 whole entry): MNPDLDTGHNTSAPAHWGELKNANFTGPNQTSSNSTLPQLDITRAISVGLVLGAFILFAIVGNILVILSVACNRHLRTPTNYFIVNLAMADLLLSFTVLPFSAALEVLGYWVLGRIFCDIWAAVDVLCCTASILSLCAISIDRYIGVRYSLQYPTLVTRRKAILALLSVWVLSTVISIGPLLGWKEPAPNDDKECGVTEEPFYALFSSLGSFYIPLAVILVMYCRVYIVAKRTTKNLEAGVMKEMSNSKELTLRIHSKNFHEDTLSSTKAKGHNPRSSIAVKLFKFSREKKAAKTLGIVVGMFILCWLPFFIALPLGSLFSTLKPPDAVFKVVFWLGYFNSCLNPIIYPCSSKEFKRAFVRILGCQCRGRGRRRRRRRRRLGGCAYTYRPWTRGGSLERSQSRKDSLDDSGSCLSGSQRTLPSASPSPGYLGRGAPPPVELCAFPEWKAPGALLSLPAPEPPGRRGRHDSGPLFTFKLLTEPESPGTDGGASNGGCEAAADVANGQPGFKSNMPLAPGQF
MEASURED PROPERTY: Ki (nM)
One number for each entry, in nM.

INSERT INTO assay_data (molecule, assay_result) VALUES
  ('COC(=O)C1=C(C)NC(=O)N(C(=O)NCCCN2CCC3(CCCc4ccccc43)CC2)C1c1ccc(F)c(F)c1 (stereo unspecified)', 310);

Batch request: Ki per item, same order as input.
1. COC(=O)C1=C(C)NC(=O)N(C(=O)N2CCC(N3CCC(C(=O)OC)(c4ccccc4)CC3)CC2)C1c1ccc(F)c(F)c1 (stereo unspecified)
2. COCC1=C(C(=O)OC)C(c2ccc(F)c(F)c2)N(C(=O)NCCCN2CCC(C)(c3ccccc3)CC2)C(=O)N1 (stereo unspecified)
3. CCC1=C(C(N)=O)C(c2ccc(F)cc2F)N(C(=O)N2CCC(N3CCC(C(=O)OC)(c4ccccc4)CC3)CC2)C(=O)N1 (stereo unspecified)
4. COCC1=C(C(=O)OC)C(c2ccc(F)c(F)c2)N(C(=O)NCCCN2CCC(C#N)(c3ccc(F)cc3)CC2)C(=O)N1 (stereo unspecified)

OUT:
[1940, 440, 15500, 30]

Batch request: Ki per item, same order as input.
1. COCC1=C(C(=O)OC)C(c2ccc(F)c(F)c2)N(C(=O)N2CCC(N3CCC(C(=O)OC)(c4ccccc4)CC3)CC2)C(=O)N1 (stereo unspecified)
2. CCC1=C(C(N)=O)C(c2ccc(F)cc2F)N(C(=O)NCCCN2CCC(C#N)(c3ccccc3)CC2)C(=O)N1 (stereo unspecified)
3. CCC1=C(C(N)=O)C(c2ccc(F)c(F)c2)N(C(=O)NCCCN2CCC(C(=O)OC)(c3ccccc3)CC2)C(=O)N1 (stereo unspecified)
4. COC(=O)C1=C(C)NC(=O)N(C(=O)NCCCN2CCC3(CC2)C(=O)Oc2ccccc23)C1c1ccc(F)c(F)c1 (stereo unspecified)

OUT:
2630
610
250
1490

Batch request: Ki per item, same order as input.
1. COC(=O)C1=C(C)NC(=O)N(C(=O)NCCCN2CCC(OC)(c3ccccc3)CC2)C1c1ccc(F)c(F)c1 (stereo unspecified)
2. COC(=O)C1=C(C)NC(=O)N(C(=O)NCCCN2CCC(c3ccc(C)cc3)(c3ccccc3C)CC2)C1c1ccc(F)c(F)c1 (stereo unspecified)

OUT:
250
80

The origin of these recorded values is ChEMBL document CHEMBL1132477.
